Test system: Streptococcus pneumoniae Group D X66
Type: cell-based
TEST_SETTINGS: agar dilution; 2, 5, 17, 22 median of three tests; paired values two experiments
REPORTED_PROPERTY: MIC Streptococcus pneumoniae Group D X66 (µg/mL)

1. CCCCCCCC(=O)N[C@@H](Cc1c[nH]c2ccccc12)C(=O)N[C@@H](CC(N)=O)C(=O)N[C@@H](CC(=O)O)C(=O)N[C@@H]1C(=O)NCC(=O)N[C@@H](CCCN)C(=O)N[C@@H](CC(=O)O)C(=O)N[C@H](C)C(=O)N[C@@H](CC(=O)O)C(=O)NCC(=O)N[C@H](CO)C(=O)N[C@@H]([C@H](C)CC(=O)O)C(=O)N[C@@H](CC(=O)c2ccccc2N)C(=O)O[C@@H]1C [Compound 2]: 64
2. CCCCCCCCCCCC(=O)N[C@@H](Cc1c[nH]c2ccccc12)C(=O)N[C@@H](CC(N)=O)C(=O)N[C@@H](CC(=O)O)C(=O)N[C@@H]1C(=O)NCC(=O)N[C@@H](CCCN)C(=O)N[C@@H](CC(=O)O)C(=O)N[C@H](C)C(=O)N[C@@H](CC(=O)O)C(=O)NCC(=O)N[C@H](CO)C(=O)N[C@@H]([C@H](C)CC(=O)O)C(=O)N[C@@H](CC(=O)c2ccccc2N)C(=O)O[C@@H]1C [Compound 6]: 2
3. CCCCCCCCCCCCN[C@@H](Cc1c[nH]c2ccccc12)C(=O)N[C@@H](CC(N)=O)C(=O)N[C@@H](CC(=O)O)C(=O)N[C@@H]1C(=O)NCC(=O)N[C@@H](CCCN)C(=O)N[C@@H](CC(=O)O)C(=O)N[C@H](C)C(=O)N[C@@H](CC(=O)O)C(=O)NCC(=O)N[C@H](CO)C(=O)N[C@@H]([C@H](C)CC(=O)O)C(=O)N[C@@H](CC(=O)c2ccccc2N)C(=O)O[C@@H]1C [Compound 22, NTrp -(n-dodecyl)-A-21978C nucleus]: 4

This collection of values is drawn from patent US4537717A.
